target: Glycogen synthase kinase-3 beta (Homo sapiens, UniProt P49841)
Sequence (P49841 whole entry): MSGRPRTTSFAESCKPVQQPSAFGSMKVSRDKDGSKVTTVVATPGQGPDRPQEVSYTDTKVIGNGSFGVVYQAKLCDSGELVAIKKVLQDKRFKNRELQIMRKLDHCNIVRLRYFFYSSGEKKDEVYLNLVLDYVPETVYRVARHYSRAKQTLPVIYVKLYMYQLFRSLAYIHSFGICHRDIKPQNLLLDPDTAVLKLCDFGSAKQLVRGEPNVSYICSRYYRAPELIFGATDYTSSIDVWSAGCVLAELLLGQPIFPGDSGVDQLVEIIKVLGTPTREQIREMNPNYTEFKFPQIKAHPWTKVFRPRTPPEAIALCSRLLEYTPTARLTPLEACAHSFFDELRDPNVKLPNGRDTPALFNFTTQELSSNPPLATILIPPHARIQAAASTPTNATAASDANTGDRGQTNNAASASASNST
Outcome Measure: Ki

The reported Ki of the compound CNc1cncc(-c2c[nH]c(=O)c(NC(=O)c3ccc(N4CCC[C@H]4CN4CCCC4)cc3)c2)n1 was > 1000 nM

---

Target: MAP kinase-activated protein kinase 5 (Homo sapiens)
Sequence (Q8IW41 whole entry): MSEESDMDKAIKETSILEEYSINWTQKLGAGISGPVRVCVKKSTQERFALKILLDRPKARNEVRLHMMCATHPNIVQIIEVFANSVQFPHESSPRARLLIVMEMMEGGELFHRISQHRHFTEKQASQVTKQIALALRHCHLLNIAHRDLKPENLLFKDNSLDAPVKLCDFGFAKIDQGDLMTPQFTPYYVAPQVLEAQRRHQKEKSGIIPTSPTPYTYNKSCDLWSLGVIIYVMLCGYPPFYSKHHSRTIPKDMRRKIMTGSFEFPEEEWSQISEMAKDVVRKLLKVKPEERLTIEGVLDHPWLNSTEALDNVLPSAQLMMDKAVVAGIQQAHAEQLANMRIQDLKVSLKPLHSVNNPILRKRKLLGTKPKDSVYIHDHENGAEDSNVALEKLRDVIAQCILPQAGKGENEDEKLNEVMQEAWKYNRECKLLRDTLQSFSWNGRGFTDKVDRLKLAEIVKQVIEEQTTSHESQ
Assay: Inhibition of PRAK
pKi: −log10 of the molar value.
Outcome Measure: pKi

The reported pKi of the compound CNc1cncc(-c2c[nH]c(=O)c(NC(=O)c3ccc(N4CCC[C@H]4CN4CCCC4)cc3)c2)n1 was < 6.00

These data points were gathered from ChEMBL document CHEMBL1765075.
